B1: library; numbered along this chain (parent)
chain: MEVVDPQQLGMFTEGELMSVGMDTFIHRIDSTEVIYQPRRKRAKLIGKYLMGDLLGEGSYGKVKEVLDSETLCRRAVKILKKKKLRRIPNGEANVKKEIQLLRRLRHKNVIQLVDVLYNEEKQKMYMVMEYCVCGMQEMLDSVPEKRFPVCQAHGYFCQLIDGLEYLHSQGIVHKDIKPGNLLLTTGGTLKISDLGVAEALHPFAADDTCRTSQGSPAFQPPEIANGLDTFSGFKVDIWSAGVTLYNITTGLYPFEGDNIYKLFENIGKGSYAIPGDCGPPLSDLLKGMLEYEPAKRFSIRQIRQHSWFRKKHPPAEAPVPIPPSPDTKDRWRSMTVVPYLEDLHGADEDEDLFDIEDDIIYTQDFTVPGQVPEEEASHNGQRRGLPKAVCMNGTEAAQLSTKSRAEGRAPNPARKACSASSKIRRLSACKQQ

Variants of: B1
test_method_notes: STK11 functional score (HeLa growth suppression), rescaled enrichment; synonymous median = 1, nonsense median = 0 (normalised score)
settings: with HeLa; variant type: missense
Mark 1 for STK11 functional score under 1, 0 if at or over.

Consider the worked cases shown below.
K175I = 1
E145M = 0
K416T = 0
S59D = 1
A218W = 1

Challenge: Please determine if H345M is below 1 in terms of STK11 functional score.
Response given: 0

Challenge: Please determine if H168C is below 1 in terms of STK11 functional score.
Response given: 1

Challenge: Please determine if K64Y is below 1 in terms of STK11 functional score.
Response given: 0

Reference for the values: the supplement of paper PMC12338614
